biological target: TYK2 (Homo sapiens, UniProt P29597); assay: TYK2 kinase inhibition (Table A1); type: biochemical; details: Table D1
Sequence (P29597 whole entry): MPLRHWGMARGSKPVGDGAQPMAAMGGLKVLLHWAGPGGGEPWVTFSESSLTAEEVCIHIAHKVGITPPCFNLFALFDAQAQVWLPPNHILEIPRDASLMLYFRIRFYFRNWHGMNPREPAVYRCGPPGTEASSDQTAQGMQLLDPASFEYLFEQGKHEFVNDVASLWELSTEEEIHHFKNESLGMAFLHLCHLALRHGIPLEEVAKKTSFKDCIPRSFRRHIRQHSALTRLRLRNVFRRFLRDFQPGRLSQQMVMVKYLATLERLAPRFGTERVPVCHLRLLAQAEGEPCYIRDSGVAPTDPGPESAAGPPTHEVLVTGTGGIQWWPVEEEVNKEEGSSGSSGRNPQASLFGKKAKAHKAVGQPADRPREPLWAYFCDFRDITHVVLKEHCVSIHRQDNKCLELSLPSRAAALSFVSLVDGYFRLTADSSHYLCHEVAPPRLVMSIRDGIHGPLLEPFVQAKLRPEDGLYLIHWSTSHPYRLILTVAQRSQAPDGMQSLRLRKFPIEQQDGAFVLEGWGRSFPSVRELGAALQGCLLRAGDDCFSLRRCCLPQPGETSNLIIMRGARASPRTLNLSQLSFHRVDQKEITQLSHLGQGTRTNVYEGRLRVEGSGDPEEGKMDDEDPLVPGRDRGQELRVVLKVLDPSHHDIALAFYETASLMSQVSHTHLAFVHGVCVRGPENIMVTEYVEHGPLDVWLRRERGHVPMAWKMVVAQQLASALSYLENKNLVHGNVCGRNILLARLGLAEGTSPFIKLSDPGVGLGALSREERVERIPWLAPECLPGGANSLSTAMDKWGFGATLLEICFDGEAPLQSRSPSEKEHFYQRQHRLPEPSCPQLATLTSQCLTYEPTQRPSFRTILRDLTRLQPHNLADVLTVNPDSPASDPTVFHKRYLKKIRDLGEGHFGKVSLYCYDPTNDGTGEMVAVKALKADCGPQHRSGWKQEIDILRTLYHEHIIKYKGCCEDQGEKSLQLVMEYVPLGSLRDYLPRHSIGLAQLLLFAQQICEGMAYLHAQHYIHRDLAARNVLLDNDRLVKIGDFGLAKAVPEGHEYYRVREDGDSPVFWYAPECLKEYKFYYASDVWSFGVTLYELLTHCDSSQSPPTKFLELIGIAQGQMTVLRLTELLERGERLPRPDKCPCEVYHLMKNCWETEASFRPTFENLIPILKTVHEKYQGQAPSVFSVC
pIC50: −log10 of the molar value. Counter-ions that a name gives are not always drawn.
Attribute: pIC50

Q. Give a short answer stating reported pIC50 for O=C(Nc1cc2cc(c1)OCCSc1cccc(c1)Nc1nc(ncc1Cl)N2)c1ccno1 [Example D59, trifluoroacetate] .
A. 8.68

Q. Give a short answer stating reported pIC50 for O=C(COc1ccc2cc1CCc1cncc(c1)Nc1ncc(Cl)c(n1)N2)N1CCN(S(=O)(=O)c2ccccc2F)CC1 [Example D253, bis(trifluoroacetate)] .
A. < 6.40

Q. Give a short answer stating reported pIC50 for O=C(CC1CN(c2ccccn2)C1)Nc1ccc2cc1CCc1cncc(c1)Nc1ncc(Cl)c(n1)N2 [Example D153, tris(trifluoroacetate)] .
A. < 6.40

* * *

molecular target: Recombinant Human Anaplastic Lymphoma Kinase (Homo sapiens, UniProt Q9UM73); construct: purchased Invitrogen, Carlsbad, Calif; assay: ALK HTRF kinase assay; assay type: biochemical; details: compound at 500 nM or 1 mM; 90 μM ATP
Sequence (Q9UM73 19-1620): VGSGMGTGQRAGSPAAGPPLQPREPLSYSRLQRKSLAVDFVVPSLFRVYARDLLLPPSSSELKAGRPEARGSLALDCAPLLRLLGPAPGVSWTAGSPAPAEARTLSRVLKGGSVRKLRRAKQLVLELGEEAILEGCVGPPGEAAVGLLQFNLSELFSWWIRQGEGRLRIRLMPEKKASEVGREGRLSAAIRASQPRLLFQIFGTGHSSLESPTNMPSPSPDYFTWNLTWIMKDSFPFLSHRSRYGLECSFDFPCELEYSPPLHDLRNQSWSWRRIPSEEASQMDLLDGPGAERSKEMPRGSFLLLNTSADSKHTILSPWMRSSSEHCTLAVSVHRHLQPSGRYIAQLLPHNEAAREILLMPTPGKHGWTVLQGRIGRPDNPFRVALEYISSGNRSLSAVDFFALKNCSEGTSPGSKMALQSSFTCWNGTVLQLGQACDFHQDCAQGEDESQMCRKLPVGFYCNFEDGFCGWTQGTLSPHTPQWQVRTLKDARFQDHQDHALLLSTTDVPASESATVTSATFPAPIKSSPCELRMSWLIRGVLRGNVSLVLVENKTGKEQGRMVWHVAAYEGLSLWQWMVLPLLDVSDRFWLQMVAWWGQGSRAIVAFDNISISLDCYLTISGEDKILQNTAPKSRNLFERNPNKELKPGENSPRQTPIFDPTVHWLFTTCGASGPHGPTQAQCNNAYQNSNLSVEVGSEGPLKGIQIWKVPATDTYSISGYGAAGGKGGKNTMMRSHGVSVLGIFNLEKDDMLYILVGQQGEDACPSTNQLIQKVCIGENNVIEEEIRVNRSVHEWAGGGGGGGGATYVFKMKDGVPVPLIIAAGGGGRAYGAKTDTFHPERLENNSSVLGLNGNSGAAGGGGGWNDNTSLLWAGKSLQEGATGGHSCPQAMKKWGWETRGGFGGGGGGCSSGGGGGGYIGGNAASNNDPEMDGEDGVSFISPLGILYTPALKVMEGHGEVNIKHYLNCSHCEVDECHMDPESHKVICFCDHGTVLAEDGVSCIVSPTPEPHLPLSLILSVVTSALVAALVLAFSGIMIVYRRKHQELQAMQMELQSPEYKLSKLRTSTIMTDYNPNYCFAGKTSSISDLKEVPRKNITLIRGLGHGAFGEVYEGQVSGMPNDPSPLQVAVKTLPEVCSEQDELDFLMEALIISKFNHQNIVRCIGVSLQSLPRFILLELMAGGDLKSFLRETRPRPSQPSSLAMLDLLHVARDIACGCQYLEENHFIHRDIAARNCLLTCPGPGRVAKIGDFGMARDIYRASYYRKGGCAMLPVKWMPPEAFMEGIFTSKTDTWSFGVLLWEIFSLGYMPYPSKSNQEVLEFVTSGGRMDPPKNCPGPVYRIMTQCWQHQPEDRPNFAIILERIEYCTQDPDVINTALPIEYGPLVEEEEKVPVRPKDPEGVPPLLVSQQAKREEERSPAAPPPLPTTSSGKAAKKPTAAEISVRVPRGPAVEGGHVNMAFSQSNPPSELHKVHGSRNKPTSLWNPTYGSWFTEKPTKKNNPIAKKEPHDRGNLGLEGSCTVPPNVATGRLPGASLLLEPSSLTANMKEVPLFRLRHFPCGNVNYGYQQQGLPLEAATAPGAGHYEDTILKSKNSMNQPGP
Where a name gives a salt, the structure may show the parent alone.
// label = 1 if ALK % of inhibition at a concentration of 500 nM or 1 mM is not less than 30%, otherwise 0

Q. Exam item: decide whether the reported ALK % of inhibition at a concentration of 500 nM or 1 mM for O=C(CC1CCN(C(=O)Nc2cccc(F)c2)CC1)Nc1ccc2cc1CCc1cncc(c1)Nc1ncc(Cl)c(n1)N2 [Example A147, bis(trifluoroacetate)] is at least 30%.
A. 1

Q. Exam item: decide whether the reported ALK % of inhibition at a concentration of 500 nM or 1 mM for CC(C)(C)NC(=O)N1CCC(CC(=O)Nc2ccc3cc2CCc2cncc(c2)Nc2ncc(Cl)c(n2)N3)CC1 [Example A113, bis(trifluoroacetate)] is at least 30%.
A. 0

Q. Exam item: decide whether the reported ALK % of inhibition at a concentration of 500 nM or 1 mM for O=C(CC1CCN(c2ncc(F)cn2)CC1)Nc1ccc2cc1CCc1cncc(c1)Nc1ncc(Cl)c(n1)N2 [Example A169, tris(trifluoroacetate)] is at least 30%.
A. 0

Q. Exam item: decide whether the reported ALK % of inhibition at a concentration of 500 nM or 1 mM for O=C(Nc1ccc2cc1CCc1cccc(c1)Nc1ncc(Cl)c(n1)N2)C1CCN(C(=O)Cc2ccccc2)CC1 [Example A35, trifluoroacetate] is at least 30%.
A. 1

Q. Exam item: decide whether the reported ALK % of inhibition at a concentration of 500 nM or 1 mM for Cc1cc(C(=O)N2CCN(CC(=O)Nc3ccc4cc3CCc3cncc(c3)Nc3ncc(Cl)c(n3)N4)CC2)no1 [Example A119, tris(trifluoroacetate)] is at least 30%.
A. 0

Q. Exam item: decide whether the reported ALK % of inhibition at a concentration of 500 nM or 1 mM for N[C@@H](CO)C(=O)Nc1ccc2cc1CCc1cccc(c1)Nc1ncc(Cl)c(n1)N2 [Example A109, bis(trifluoroacetate)] is at least 30%.
A. 1

Q. Exam item: decide whether the reported ALK % of inhibition at a concentration of 500 nM or 1 mM for O=C(CC1CCN(c2ccccc2)CC1)Nc1ccc2cc1CCc1cncc(c1)Nc1ncc(Cl)c(n1)N2 [Example A219, tris(trifluoroacetate)] is at least 30%.
A. 0

Q. Exam item: decide whether the reported ALK % of inhibition at a concentration of 500 nM or 1 mM for O=C(CC1CCN(S(=O)(=O)c2ccccc2F)CC1)Nc1ccc2cc1CCc1cncc(c1)Nc1ncc(Cl)c(n1)N2 [Example A226, bis(trifluoroacetate)] is at least 30%.
A. 1

New cases:
Q. Exam item: decide whether the reported ALK % of inhibition at a concentration of 500 nM or 1 mM for N#Cc1ccc(C(=O)N2CCC(C(=O)Nc3ccc4cc3CCc3cccc(c3)Nc3ncc(Cl)c(n3)N4)CC2)cc1 [Example A33, trifluoroacetate] is at least 30%.
A. 0

Q. Exam item: decide whether the reported ALK % of inhibition at a concentration of 500 nM or 1 mM for CC(=O)N1CCCC(C(=O)Nc2ccc3cc2CCc2cccc(c2)Nc2ncc(Cl)c(n2)N3)C1 (stereo not drawn) [Example A47, trifluoroacetate] is at least 30%.
A. 0

Q. Exam item: decide whether the reported ALK % of inhibition at a concentration of 500 nM or 1 mM for N#Cc1cccc(NC(=O)N2CCC(CC(=O)Nc3ccc4cc3CCc3cncc(c3)Nc3ncc(Cl)c(n3)N4)CC2)c1 [Example A142, bis(trifluoroacetate)] is at least 30%.
A. 1
